Reference source: patent US20240270762A1

Biological target: A. baumannii PBP1a (Acinetobacter baumannii)
Sequence (A0ABX6CK30 1-851): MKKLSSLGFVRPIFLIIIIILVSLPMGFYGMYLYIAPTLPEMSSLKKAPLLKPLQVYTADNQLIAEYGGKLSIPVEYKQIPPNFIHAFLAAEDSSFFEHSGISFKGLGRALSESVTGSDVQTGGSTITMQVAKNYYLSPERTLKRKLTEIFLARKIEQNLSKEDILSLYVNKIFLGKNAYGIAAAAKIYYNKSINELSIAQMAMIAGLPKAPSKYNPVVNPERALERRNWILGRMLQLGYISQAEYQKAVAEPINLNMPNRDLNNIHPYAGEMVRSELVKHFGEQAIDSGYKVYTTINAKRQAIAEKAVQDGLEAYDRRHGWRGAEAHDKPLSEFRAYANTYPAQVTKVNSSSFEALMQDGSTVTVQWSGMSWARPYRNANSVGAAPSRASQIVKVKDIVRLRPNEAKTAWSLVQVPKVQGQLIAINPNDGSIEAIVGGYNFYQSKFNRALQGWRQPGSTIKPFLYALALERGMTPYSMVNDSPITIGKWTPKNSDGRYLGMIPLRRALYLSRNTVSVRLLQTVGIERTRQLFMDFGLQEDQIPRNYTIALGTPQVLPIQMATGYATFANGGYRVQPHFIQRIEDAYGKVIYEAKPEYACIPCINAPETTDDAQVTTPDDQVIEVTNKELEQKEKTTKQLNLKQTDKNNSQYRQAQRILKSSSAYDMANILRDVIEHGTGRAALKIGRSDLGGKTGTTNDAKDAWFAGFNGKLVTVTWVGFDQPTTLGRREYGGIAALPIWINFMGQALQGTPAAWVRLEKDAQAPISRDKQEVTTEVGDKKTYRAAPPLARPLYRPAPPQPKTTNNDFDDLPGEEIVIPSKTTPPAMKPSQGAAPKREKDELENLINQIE
Test: Bocillin-FL competition binding via gel filtration, A. baumannii PBP1a
Details: competition binding assay using Bocillin-FL via gel filtration; read-out: A. baumannii PBP1a Potency
Listing of entries alongside the reported EC50.

O=C(O)c1c(F)ccc2c1OB(O)[C@@H](NC(=O)[C@H](NC(=O)N1CCN(C3CCN(C(=O)Nc4cc(O)c(O)c(Cl)c4)CC3)C1=O)c1ccc(P(=O)(O)O)cc1)C2 (single isomer, unassigned) [Example 501]; < 10 µM
O=C(NCCCN1CCN(C(=O)NC(C(=O)N[C@H]2Cc3ccc(F)c(C(=O)O)c3OB2O)c2cc(F)c(O)c(O)c2Cl)C(=O)C1=O)c1ccc(F)c(O)c1Cl (stereo partly drawn) [Example 412]; < 10 µM

## Input Find the recorded EC50 belonging to O=C(NCCCN1CCN(C(=O)N[C@@H](C(=O)N[C@H]2Cc3ccc(F)c(C(=O)O)c3OB2O)c2cc(F)c(O)c(O)c2Cl)C(=O)C1=O)c1cc(F)c(O)c(F)c1 [Example 422] and report it.
## Output < 10 µM
